B1: CLCN6 (parent)
chain: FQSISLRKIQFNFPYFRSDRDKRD

variants of: B1; assay: protein stability index of a GFP-peptide fusion (GPS, HEK-293T) (PSI 1-6); higher = more stable; conditions: c terminus: a fixed tail appended;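 also: lentivirally expressed fusions sorted by FACS into six bins by GFP to DsRed ratio, PSI derived from sequencing read proportions per bin multiplied by bin number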
Hi, to clarify the labels: class 1 covers protein stability index from 2 upward, class 0 covers anything below 2.

## Task Test whether the variant `I9G` records protein stability index of 2 or higher.
## Result class 0

## Task Can you handle `R23D` next?
## Result class 0

## Task Another variant to check: `R23V`
## Result class 0

## Task Same again, this time with `I4E`
## Result class 0

## Task Follow-up item: `R7T`
## Result class 0

## Task Next record, please: `R20A`
## Result class 1

## Task And then `L6P` , what is it?
## Result class 1

## Task `S5F` , same question.
## Result class 1

## Task Same again, this time with `D19K`
## Result class 0

## Task Can you handle `F11M` next?
## Result class 0

## Task Proceed to `Y15W`
## Result class 0

## Task What do you get for `R7W` ?
## Result class 0

## Task Same for `Y15F`
## Result class 0

## Task Then `F13M` ?
## Result class 1

## Task Can you check `I4L` next?
## Result class 1

## Task Next variant up: `S3A`
## Result class 0

## Task And the next one, `R17Y` ?
## Result class 0

## Task Check `R17M` too.
## Result class 0

## Task Consider next the variant `R7C` in the same way.
## Result class 0
